These entries and their values trace back to paper PMC6862662.

Target or system AChE (Homo sapiens); recorded quantity Ki.

{"structure notation": "O=c1c(C=NNc2ccc(C(F)(F)F)cc2)coc2cc3oc(-c4cccc(F)c4)cc3cc12", "Ki [µM]": 0.58}
{"structure notation": "O=c1c(C=NNc2ccc(C(F)(F)F)cc2)coc2cc3oc(-c4cccc(Cl)c4)cc3cc12", "Ki [µM]": 2.5}
{"structure notation": "COc1ccc(-c2cc3cc4c(=O)c(C=NNc5ccc(C(F)(F)F)cc5)coc4cc3o2)cc1", "Ki [µM]": 8.16}
{"structure notation": "O=Cc1coc2cc3oc(-c4cccc(F)c4)cc3cc2c1=O", "Ki [µM]": 1.1}
{"structure notation": "COc1ccc(-c2cc3cc4c(=O)c(C=O)coc4cc3o2)cc1", "Ki [µM]": 1.34}

====

Target: AChE (Homo sapiens)
Construct: purchased BL, purchased through BIOCOM Africa (Pty) Ltd. 768104
Sequence (P22303 32-614): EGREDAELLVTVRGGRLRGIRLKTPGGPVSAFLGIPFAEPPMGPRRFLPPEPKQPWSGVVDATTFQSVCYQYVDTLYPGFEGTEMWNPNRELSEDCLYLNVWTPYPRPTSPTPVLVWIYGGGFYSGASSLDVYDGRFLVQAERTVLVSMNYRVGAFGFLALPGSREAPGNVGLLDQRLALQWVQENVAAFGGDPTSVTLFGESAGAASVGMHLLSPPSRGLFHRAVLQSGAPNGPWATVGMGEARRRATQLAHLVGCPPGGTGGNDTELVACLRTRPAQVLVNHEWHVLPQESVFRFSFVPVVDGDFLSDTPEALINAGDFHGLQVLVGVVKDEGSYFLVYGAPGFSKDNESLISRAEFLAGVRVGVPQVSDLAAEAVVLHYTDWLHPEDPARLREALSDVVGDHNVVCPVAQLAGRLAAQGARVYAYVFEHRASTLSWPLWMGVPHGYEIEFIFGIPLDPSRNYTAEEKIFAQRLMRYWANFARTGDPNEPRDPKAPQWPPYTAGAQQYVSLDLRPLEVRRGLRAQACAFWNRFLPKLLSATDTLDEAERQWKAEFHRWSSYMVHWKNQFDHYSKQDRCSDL
Assay: biochemical
Settings: Ellman's method, triplicate; read-out: IC50 (µM) AChE
This listing pairs compounds with measured IC50.

{"compound": "O=Cc1coc2cc3oc(-c4ccccc4)cc3cc2c1=O [Compound 2a]", "measured target": "AChE (Homo sapiens)", "IC50, µM": 28.6}
{"compound": "COc1cc(OC)cc(-c2cc3cc4c(=O)c(C=NNc5ccc(C(F)(F)F)cc5)coc4cc3o2)c1 [Compound 3g]", "measured target": "AChE (Homo sapiens)", "IC50, µM": 34.9}
{"compound": "O=Cc1coc2cc3oc(-c4cccc(F)c4)cc3cc2c1=O [Compound 2b]", "measured target": "AChE (Homo sapiens)", "IC50, µM": 5.4}
{"compound": "O=Cc1coc2cc3oc(-c4ccc(F)cc4)cc3cc2c1=O [Compound 2c]", "measured target": "AChE (Homo sapiens)", "IC50, µM": 15.3}
{"compound": "O=c1c(C=NNc2ccc(C(F)(F)F)cc2)coc2cc3oc(-c4ccc(Cl)cc4)cc3cc12 [Compound 3e]", "measured target": "AChE (Homo sapiens)", "IC50, µM": 12.9}
{"compound": "COc1ccc(-c2cc3cc4c(=O)c(C=NNc5ccc(C(F)(F)F)cc5)coc4cc3o2)cc1 [Compound 3f]", "measured target": "AChE (Homo sapiens)", "IC50, µM": 5.4}
{"compound": "O=Cc1coc2cc3oc(C4=CCCCC4)cc3cc2c1=O [Compound 2i]", "measured target": "AChE (Homo sapiens)", "IC50, µM": 22.6}
{"compound": "O=c1c(C=NNc2ccc(C(F)(F)F)cc2)coc2cc3oc(-c4ccccc4)cc3cc12 [Compound 3a]", "measured target": "AChE (Homo sapiens)", "IC50, µM": 18.4}
{"compound": "O=Cc1coc2cc3oc(-c4cccc(Cl)c4)cc3cc2c1=O [Compound 2d]", "measured target": "AChE (Homo sapiens)", "IC50, µM": 33.4}
{"compound": "O=c1c(C=NNc2ccc(C(F)(F)F)cc2)coc2cc3oc(-c4cccc(F)c4)cc3cc12 [Compound 3b]", "measured target": "AChE (Homo sapiens)", "IC50, µM": 7.6}
{"compound": "Cc1ccc(-c2cc3cc4c(=O)c(C=NNc5ccc(C(F)(F)F)cc5)coc4cc3o2)cc1 [Compound 3h]", "measured target": "AChE (Homo sapiens)", "IC50, µM": 10.5}
{"compound": "O=Cc1coc2cc3oc(-c4ccc(Cl)cc4)cc3cc2c1=O [Compound 2e]", "measured target": "AChE (Homo sapiens)", "IC50, µM": 21.8}
{"compound": "O=c1c(C=NNc2ccc(C(F)(F)F)cc2)coc2cc3oc(-c4cccc(Cl)c4)cc3cc12 [Compound 3d]", "measured target": "AChE (Homo sapiens)", "IC50, µM": 18.3}
{"compound": "Cc1ccc(-c2cc3cc4c(=O)c(C=O)coc4cc3o2)cc1 [Compound 2h]", "measured target": "AChE (Homo sapiens)", "IC50, µM": 12.9}
{"compound": "O=c1c(C=NNc2ccc(C(F)(F)F)cc2)coc2cc3oc(-c4ccc(F)cc4)cc3cc12 [Compound 3c]", "measured target": "AChE (Homo sapiens)", "IC50, µM": 21.2}
{"compound": "O=c1c(C=NNc2ccc(C(F)(F)F)cc2)coc2cc3oc(C4=CCCCC4)cc3cc12 [Compound 3i]", "measured target": "AChE (Homo sapiens)", "IC50, µM": 29.8}
{"compound": "COc1cc(OC)cc(-c2cc3cc4c(=O)c(C=O)coc4cc3o2)c1 [Compound 2g]", "measured target": "AChE (Homo sapiens)", "IC50, µM": 10.8}
